Listed next: entries and their corresponding pIC50.
Test system: 156681-154-R-J1 tumor spheroid viability
Experiment: Anticancer human tumor 156681-154-R-J1 patient-derived melanoma cell line growth inhibition
Conditions: curve of first compound; second compound 0.000949 µM; spheroids with HUVEC and MSC
pIC50: −log10 of the molar value.

Q. Indicate the recorded pIC50 value for this molecule: [2H]c1nc(C)nc([2H])c1-c1cc(NC[C@@H](C)c2cccc3c(C(=O)NC)ccnc23)ncn1 + COc1cc2c(cc1O)CCNC21CSC2c3c(OC(C)=O)c(C)c4c(c3C(COC1=O)N1C(O)C3Cc5cc(C)c(OC)c(O)c5C(C21)N3C)OCO4
A. > 7.50

Q. Indicate the recorded pIC50 value for this molecule: COc1cc(C)[nH]c(=O)c1CN1CCc2c(Cl)cc(C(OC)C3COC3)c(Cl)c2C1=O (configuration not stated) + COc1cc2c(cc1O)CCNC21CSC2c3c(OC(C)=O)c(C)c4c(c3C(COC1=O)N1C(O)C3Cc5cc(C)c(OC)c(O)c5C(C21)N3C)OCO4
A. > 7.50

###

Tested on: 156681-154-R-J1 tumor spheroid viability
Assay: Anticancer human tumor 156681-154-R-J1 cell line growth inhibition;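 further: spheroids exposed to compounds for 7 days before readout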;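 on viability, T/C: percent of vehicle control viability where 100% = DMSO-treated spheroids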
Settings: second compound 0.03 µM; first compound 0.1 µM; stronger effect = lower value; spheroids with HUVEC and MSC
Listed next: entries and their corresponding viability, T/C.
Hi! Could you send only the number? It should be in %, unit omitted.

Use the examples below as a reference point.
Q. Indicate the recorded viability, T/C value for this molecule: COc1ccc([C@@H](O)c2cc(-c3ncnc4cc(N5CCOCC5)ccc34)c(F)cc2Cl)nn1 + CC[C@@]1(O)C(=O)OCc2c1cc1n(c2=O)Cc2cc3c(CN(C)C)c(O)ccc3nc2-1
A. 57.8

Q. Indicate the recorded viability, T/C value for this molecule: CC(C)n1c(=O)n(C)c2cnc3cc(F)c(-c4ccc(OCCCN5CCCCC5)nc4)cc3c21 + CC[C@@]1(O)C(=O)OCc2c1cc1n(c2=O)Cc2cc3c(CN(C)C)c(O)ccc3nc2-1
A. 44.7

Q. Indicate the recorded viability, T/C value for this molecule: CC1COCCN1c1cc(-c2ccnn2C)c2ccnc(-c3ccn[nH]3)c2n1 (stereo unspecified) + CC[C@@]1(O)C(=O)OCc2c1cc1n(c2=O)Cc2cc3c(CN(C)C)c(O)ccc3nc2-1
A. 44.8

Q. Indicate the recorded viability, T/C value for this molecule: COc1cc(C)[nH]c(=O)c1CN1CCc2c(Cl)cc(C(OC)C3COC3)c(Cl)c2C1=O (stereo unspecified) + CC[C@@]1(O)C(=O)OCc2c1cc1n(c2=O)Cc2cc3c(CN(C)C)c(O)ccc3nc2-1
A. 71.1

Further cases:
Q. Indicate the recorded viability, T/C value for this molecule: [2H]c1nc(C)nc([2H])c1-c1cc(NC[C@@H](C)c2cccc3c(C(=O)NC)ccnc23)ncn1 + CC[C@@]1(O)C(=O)OCc2c1cc1n(c2=O)Cc2cc3c(CN(C)C)c(O)ccc3nc2-1
A. 72.3

Q. Indicate the recorded viability, T/C value for this molecule: Cc1cc(C)c(CNC(=O)c2cc(-c3ccc(CN4CCOCC4)cc3)cc3c2cnn3C2CCCC2)c(=O)[nH]1 + CC[C@@]1(O)C(=O)OCc2c1cc1n(c2=O)Cc2cc3c(CN(C)C)c(O)ccc3nc2-1
A. 66.6

These data points were gathered from PubChem BioAssay AID1845195.
